# experimental system: T1, BoNT/B1 (Clostridium botulinum, UniProt P10844 2-1291)
# T1 sequence: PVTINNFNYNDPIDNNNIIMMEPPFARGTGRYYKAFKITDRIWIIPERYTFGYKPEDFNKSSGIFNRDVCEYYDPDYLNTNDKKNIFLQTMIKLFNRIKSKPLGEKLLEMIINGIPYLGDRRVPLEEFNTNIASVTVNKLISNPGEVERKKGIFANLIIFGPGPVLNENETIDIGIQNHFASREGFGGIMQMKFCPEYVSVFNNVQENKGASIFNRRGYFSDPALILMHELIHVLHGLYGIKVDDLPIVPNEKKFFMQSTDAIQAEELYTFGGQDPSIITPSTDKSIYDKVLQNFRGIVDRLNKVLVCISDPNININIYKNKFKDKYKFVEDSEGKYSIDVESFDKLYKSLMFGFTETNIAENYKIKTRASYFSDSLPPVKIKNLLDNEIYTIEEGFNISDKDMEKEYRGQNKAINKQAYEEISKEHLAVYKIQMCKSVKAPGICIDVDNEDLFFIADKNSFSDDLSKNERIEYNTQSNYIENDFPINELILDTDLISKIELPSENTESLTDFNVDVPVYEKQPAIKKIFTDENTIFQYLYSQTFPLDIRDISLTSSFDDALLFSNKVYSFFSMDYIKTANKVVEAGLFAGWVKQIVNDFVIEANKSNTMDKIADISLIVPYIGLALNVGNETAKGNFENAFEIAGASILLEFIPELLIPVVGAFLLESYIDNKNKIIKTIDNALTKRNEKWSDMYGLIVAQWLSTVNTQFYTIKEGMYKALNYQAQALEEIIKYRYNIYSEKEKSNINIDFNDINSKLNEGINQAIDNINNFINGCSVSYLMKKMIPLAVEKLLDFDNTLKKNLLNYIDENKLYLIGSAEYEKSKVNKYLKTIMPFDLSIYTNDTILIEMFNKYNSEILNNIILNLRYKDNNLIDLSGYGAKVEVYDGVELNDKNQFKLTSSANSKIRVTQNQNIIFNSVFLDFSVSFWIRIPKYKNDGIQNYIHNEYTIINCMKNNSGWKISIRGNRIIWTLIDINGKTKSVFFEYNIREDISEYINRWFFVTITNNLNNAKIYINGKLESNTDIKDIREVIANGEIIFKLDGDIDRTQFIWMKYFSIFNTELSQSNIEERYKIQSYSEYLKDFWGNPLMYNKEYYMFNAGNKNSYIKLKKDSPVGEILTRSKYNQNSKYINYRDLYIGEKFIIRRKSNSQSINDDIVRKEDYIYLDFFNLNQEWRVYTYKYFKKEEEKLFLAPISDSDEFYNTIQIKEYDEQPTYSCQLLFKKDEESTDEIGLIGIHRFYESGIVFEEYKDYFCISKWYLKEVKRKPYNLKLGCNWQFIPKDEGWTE
# experimental protocol: yeast scFv FACS
binders and their reported Kd
A number alone suffices; assume nM.

# count of solved cases: 2
[
  {
    "binder": "16D5 scFv (scFv, mouse) scFv: EVKLVESGAELVRPGASVKLSCTPSGFNIKDDYMHWVKQRPEQGLEWIGRIDPANGNTRYAPKFQDKATLTADTSSNTAYLHLTSLTSEDTAVYYCARSYYRAWFDYWGQGTLVTVSSVDLKSGGSTSGSGKPGSGEGSSGSARQIVLTQSPATLSVTPGDSVSLSCRASQSISNNLHWYQQKSHESPRLLIKYASQSISGIPSRFSGSGSGTDFTLSINSVETEDFGMYFCQQSNSWPLTFGAGTRLEIK",
    "reported result": 7.57
  },
  {
    "binder": "19A9 scFv (scFv, mouse) scFv: EVQLQQPGSELARPGASVKLSCKASGYTFTSYPITWVKQTTGQGLEWIGEIYPRSGNTYYNEKFKGKATLTADKSSSTAYMELRSLTSEDSAVYFCARDYYDYAGGGRGYWGQGTTLTVSSVDLKSGGSTSGSGKPGSGEGSSGSARDIVLTQSPAIMSASPGGKITITCSASSSVSYMHWFQQKPGTSPKLWIYSTSNLASGVPARFSGSGSGTSYSLTISRMEAEDAATYYCQQRSSYPYTFGGGTKLEIK",
    "reported result": 1.98
  }
]

Consider the record given below.
[in] I would be grateful if you could share the reported Kd for 19B6 scFv (scFv, mouse) scFv: QVQLQQSGAELVKPGASVKISCKASGYTFTDNYINWVKQRPGQGLEWIGWIHPGSGNAKYNEKFRAKATLTVDTSSNTAYMQLSSLTSEDSAVYFCARVGFRVNFDYWGQGTTLTVSSVDLKSGGSTSGSGKPGSGEGSSGSARQIVLTQSPAIMSASPGEKVTMTCSASSSLSYVHWYQQKPGSSPKPWIYATSNLVSGVPARFSGSRSGTSYSLTISSMEAEDAATYYCQQWSSYPPTFGAGTKLEIK .
[out] 19.7
